molecular target: T1, cynomolgus monkey C-MET His tag, monomeric (cynomolgus monkey, UniProt A0M8R7 25-932 (Papio anubis entry)); test: SPR Biacore, IgG captured, monomeric C-MET-His analyte
T1 construct: also called monomeric cyno C-MET; cyCMET
T1 sequence (A0M8R7 25-932 S170N/I621T): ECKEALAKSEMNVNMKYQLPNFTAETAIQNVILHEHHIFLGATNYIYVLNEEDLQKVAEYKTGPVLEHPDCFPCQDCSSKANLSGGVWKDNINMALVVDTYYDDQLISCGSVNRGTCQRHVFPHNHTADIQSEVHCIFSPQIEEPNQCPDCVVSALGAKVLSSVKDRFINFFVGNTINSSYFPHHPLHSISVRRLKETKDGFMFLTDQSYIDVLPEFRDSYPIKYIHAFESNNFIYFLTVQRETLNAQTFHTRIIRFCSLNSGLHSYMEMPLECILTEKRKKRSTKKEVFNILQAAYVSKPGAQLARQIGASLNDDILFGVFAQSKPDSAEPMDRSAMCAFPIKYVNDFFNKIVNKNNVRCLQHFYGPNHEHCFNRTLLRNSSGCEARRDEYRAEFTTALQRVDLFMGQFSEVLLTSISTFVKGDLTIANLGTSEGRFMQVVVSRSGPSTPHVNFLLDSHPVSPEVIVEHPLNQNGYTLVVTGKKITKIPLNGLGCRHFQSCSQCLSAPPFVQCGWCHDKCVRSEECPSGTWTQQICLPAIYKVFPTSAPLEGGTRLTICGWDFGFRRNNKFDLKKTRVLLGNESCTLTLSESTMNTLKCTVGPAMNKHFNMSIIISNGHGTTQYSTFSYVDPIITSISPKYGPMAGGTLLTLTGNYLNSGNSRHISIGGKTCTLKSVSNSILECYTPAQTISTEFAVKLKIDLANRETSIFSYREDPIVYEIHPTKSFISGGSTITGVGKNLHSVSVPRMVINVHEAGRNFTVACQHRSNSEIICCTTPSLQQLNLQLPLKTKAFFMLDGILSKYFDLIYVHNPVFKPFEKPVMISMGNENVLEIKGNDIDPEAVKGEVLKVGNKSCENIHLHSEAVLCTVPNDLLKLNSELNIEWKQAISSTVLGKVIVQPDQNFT
METRIC: koff (s⁻¹)
Field: numeric (s⁻¹). Do not append units.

I have this binder here, MH9 (antibody, IgG4, V domains shown) VH: QVQLVQSGAEVKKPGASVKVSCKASGYTFTSYTMHWVRQAPGQGLEWMGIINPSGGSTSYAQKFQGRVTMTRDTSTSTVYMELSSLRSEDTAVYYCARQEITTEFDYWGQGTLVTVSS VL: EIVLTQSPGTLSLSPGERATLSCRASQSVSSYAQSYLHWYQQKPGQAPRLLIYRGSTRETGIPDRFSGSGSGTDFTLTISRLEPEDFAVYYCQQYGSSPLTFGGGTKVEIK , and I need its recorded koff.
0.00048

Given the entry MH6 (antibody, IgG4, V domains shown) VH: QVQLVQSGAEVKKPGASVKVSCKASGYTFTSYTMHWVRQAPGQGLEWMGWINPSGGSTSYAQKFQGRVTMTRDTSTSTVYMELSSLRSEDTAVYYCARQEITTEFDYWGQGTLVTVSS VL: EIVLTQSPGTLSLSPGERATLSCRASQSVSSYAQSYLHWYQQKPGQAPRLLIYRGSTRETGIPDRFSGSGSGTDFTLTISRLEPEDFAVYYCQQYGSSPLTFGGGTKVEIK , report its measured koff.
0.00063
